I'd appreciate it if you could supply pKi values for the items below.
Target: UDP-3-O-acyl-N-acetylglucosamine deacetylase (Escherichia coli K-12)
Sequence (P0A725 whole entry): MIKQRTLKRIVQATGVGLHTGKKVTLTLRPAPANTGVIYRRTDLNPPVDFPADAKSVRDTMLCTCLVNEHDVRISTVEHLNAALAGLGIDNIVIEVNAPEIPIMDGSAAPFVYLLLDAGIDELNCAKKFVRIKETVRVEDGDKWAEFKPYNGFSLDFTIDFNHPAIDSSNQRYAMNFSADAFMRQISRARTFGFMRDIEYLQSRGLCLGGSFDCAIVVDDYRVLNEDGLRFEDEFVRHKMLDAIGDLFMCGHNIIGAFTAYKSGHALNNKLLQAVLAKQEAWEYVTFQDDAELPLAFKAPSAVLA
Scale: pKi equals -log10([C]), with [C] in mol/L.

pKi reading for CCCc1cc(C2=N[C@@H](C(=O)NO)CO2)cc(OC)c1OC : 7.28

pKi reading for O=C(NO)[C@@H](Cc1ccc2ccccc2c1)NS(=O)(=O)c1ccc2ccccc2c1 : 7.16
